- test target: human FGF-1 (flg) receptor tyrosine kinase (Homo sapiens, UniProt P11362)
- Construct: a fragment of DNA that codes for the intracellular tyrosine kinase domain
- Sequence (P11362 478-767 limits assumed): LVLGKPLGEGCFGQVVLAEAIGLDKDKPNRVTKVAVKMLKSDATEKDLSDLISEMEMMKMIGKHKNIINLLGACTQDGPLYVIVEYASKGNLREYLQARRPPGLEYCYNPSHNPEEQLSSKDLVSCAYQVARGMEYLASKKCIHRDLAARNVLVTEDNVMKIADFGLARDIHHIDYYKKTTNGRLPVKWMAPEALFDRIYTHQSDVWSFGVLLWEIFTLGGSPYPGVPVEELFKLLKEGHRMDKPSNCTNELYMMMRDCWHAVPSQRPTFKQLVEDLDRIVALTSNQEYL
- test details: FGF receptor tyrosine kinase assay
- measurement context: read-out: Inhibition of Protein Tyrosine Kinases, FGF, IC50
Task for the reader: assign each of the following molecules its reported IC50.
Give bare numbers, in nM.

Below, each entry is followed by its recorded IC50 result.
CCN(CC)CCCCNc1ncc2cc(-c3c(Cl)cccc3Cl)c(NC(=S)NCCCN3CCOCC3)nc2n1
171
Cc1ccccc1-c1cc2cnc(N)cc2nc1N [Example 16, 3-o-Tolyl-[1,6]naphthyridine-2,7-diamine]
9210

Exercise: Could you tell me which IC50 is on file for Nc1ncc2cc(-c3c(Cl)cccc3Cl)c(N)nc2n1 ?
Solution: 2990
